Attribution: PubChem BioAssay

List of vesicle binding response values.
procedure.text: reduced mouse 2C T cell binding to pMHC/ICAM-1 vesicles – MLPCN validation set, flow cytometry, LFA-1/ICAM-1 modulator project, pilot screen (AID 2523);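 note: mean PE anti-B7-1 fluorescence of CD8+ cells relative to row control; 100% = QL9-loaded vesicles with DMSO vehicle in the same plate row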
test.context: 2C mouse CD8+ T cells, at 7 µM, active compounds read low
The source made the active and inactive calls.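 Rule for the calls: active = response below a set limit, under 55% cells CD8-positive and vesicle-bound, and CD8 cells' 90th-percentile brightness under 279; inactive = the rest.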

Before answering, review these 2 worked examples.
1. CC(=O)N/C(=C/c1ccc2c(c1)OCO2)C(=O)NCCO | 3870% (inactive)
2. CCSC(SCC)[C@H](O)[C@@H](O)[C@H](O)[C@H](O)CO | 218% (inactive)

get_value(item= `Nc1ccn([C@@H]2O[C@H](CO)[C@@H](O)[C@@H]2O)c(=O)n1` , readout=vesicle binding response) returns 201% (inactive)

get_value(item= COc1ccc(C2=C(CN(C)C)C(c3ccccc3)c3ccccc3O2)cc1 (stereo unspecified) , readout=vesicle binding response) returns 6270% (inactive)

get_value(item= `CC1(C)Cc2nc3sc4c(=O)n(CC(N)=O)cnc4c3cc2CO1` , readout=vesicle binding response) returns 159% (inactive)

get_value(item= C=CCC1(Cl)C(=O)C(Cl)=C(N2CCOCC2)C1(OC)OC (stereo unspecified) , readout=vesicle binding response) returns 167% (inactive)

----------
procedure.text: yeast TOR pathway reporter LAP4-GFP change – cell-based, cherry picks, flow cytometry, mother/daughter gates, confirmation (AID 2271);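 note: ratio of sample to DMSO plate mean so 100% equals DMSO level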
test.context: S. cerevisiae LAP4-GFP strain, 3 h, at 10 µM, active compounds read high, 100 means same as DMSO control
attribute.measured: GFP response relative to DMSO (%)
Give your result in % as a bare value.

Before answering, review these 5 worked examples.
1) CC(=O)Nc1ccccc1O | 93.8
2) O=c1cc(-c2ccccc2)oc2cc(OCc3ccccc3)cc(O)c12 | 99.2
3) CCOc1cc(C=O)ccc1OCCSc1ccc(C)cc1 | 131
4) Nc1[nH]c(=O)ncc1F | 107
5) CN(c1ccccc1)c1ccc(/C=c2\s/c(=C(/C#N)C(=O)C(C)(C)C)n(Cc3ccco3)c2=O)cc1 | 235

get_value(item= `CCOc1nnc(C)c2c(C)n(-c3cccc(OC)c3)nc12` , readout=GFP response relative to DMSO) returns 98.7

get_value(item= `COC(=O)n1c(=S)oc2cc(Cl)ccc21` , readout=GFP response relative to DMSO) returns 126

----------
procedure.text: TOR pathway LAP4-GFP level changes – S. cerevisiae, multiplex flow cytometry, primary screen (AID 1873)
test.context: S. cerevisiae LAP4-GFP expression, 3 h, at 10 µM, active compounds read high
Inconclusive results are not listed.
List of GFP response vs DMSO values.
Give your result in % as a bare value.

1. O=C1ON=C(c2ccc(Cl)cc2)/C1=C/c1ccc(O)cc1 | 98.2
2. COc1ccc(NC(=S)N2CCN(CCN3C(=O)c4cccc5cccc(c45)C3=O)CC2)cc1 | 90.2
3. COc1ccc(-c2c[n+](CC(=O)OC3CC(C)CCC3C(C)C)c3n2CCC3)cc1 (stereo unspecified) | 97
4. c1ccc(-c2ccc(C(c3ccccc3)n3ccnc3)cc2)cc1 (stereo unspecified) | 115
5. CSc1ccc(CN2CCN(CCC(C)C)C(CCO)C2)cc1 (stereo unspecified) | 117
6. COc1cccc2c1OCC1COc3c(c(=O)n(C)c(=O)n3C)C21 (stereo unspecified) | 130
7. CCOc1ccc2oc(-c3ccccc3)c(C(=O)O)c2c1 | 110
8. Cc1cc(/C=N/O)c(C)n1-c1ccc(Br)cc1 | 93.7
9. O=C(CCCN1C(=O)/C(=C\c2cccc(Br)c2)SC1=S)Nc1cccnc1 | 120
10. Nc1nc(Cl)nc2c1ncn2[C@H]1C[C@H](O)[C@@H](CO)O1 | 104

Let's switch to this molecule now.
get_value(item= CC(=O)CC(c1ccc([N+](=O)[O-])cc1)c1c(O)c2ccccc2oc1=O (stereo unspecified) , readout=GFP response vs DMSO) returns 118
